// provenance: the antibiotic and cytotoxicity screens of Wong et al. (2023)

- Test system: HSkMC
- measurement.description: cytotoxicity call (relative viability < 0.9)
- experimental.conditions: 10 µM
About 1,500 (3.8%) of roughly 39,000 compounds were called active. This is one part of a sample in which actives are shown more often than they occur.
observed.property: cytotoxicity call

Cn1cnc(CCNC(=O)C[C@H]2CC[C@@H]3[C@H](COC[C@H](O)CN3C(=O)Nc3ccc(C(F)(F)F)cc3)O2)c1 | inactive
Cc1cccc(S(=O)(=O)N2C[C@@H](O)COC[C@@H]3O[C@H](CC(=O)NCCCN4CCOCC4)CC[C@H]32)c1 | inactive
COc1ccc(C#Cc2cnc3c(c2)C(=O)N([C@@H](C)CO)C[C@@H](C)[C@H](CN(C)CC2CCOCC2)O3)cc1 | inactive
C[C@@H]1CCCCO[C@H](CN(C)C(=O)Nc2cccc3ccccc23)[C@H](C)CN([C@H](C)CO)C(=O)c2cc(NS(C)(=O)=O)ccc2O1 | inactive

###

- Tested on: HSkMC
- measurement.description: cytotoxicity call (relative viability < 0.9)
- experimental.conditions: 10 µM
In all, about 39,000 compounds went through this assay and about 1,500 (3.8%) were called active. The entries come from a sample that favours actives as a whole.
Parameter call: string, one of Yes = active, No = inactive

Field: example entries. Status: answers known.
C[C@H]1CCCCO[C@@H](CN(C)Cc2ccccc2)[C@@H](C)CN([C@@H](C)CO)C(=O)c2cc(NC(=O)Nc3cccc4ccccc34)ccc2O1 | Yes
C[C@@H]1CCCCO[C@H](CN(C)Cc2ccc(C(=O)O)cc2)[C@H](C)CN([C@H](C)CO)C(=O)c2cc(NC(=O)Nc3cccc4ccccc34)ccc2O1 | No
C[C@@H]1CN([C@H](C)CO)C(=O)c2cc(NC(=O)Nc3cccc4ccccc34)ccc2O[C@@H](C)CCCCO[C@H]1CN(C)Cc1ccccc1 | No
C[C@@H]1CCCCO[C@H](CN(C)Cc2ccccc2)[C@@H](C)CN([C@@H](C)CO)C(=O)c2cc(NC(=O)Nc3cccc4ccccc34)ccc2O1 | Yes
C[C@@H]1CN([C@@H](C)CO)C(=O)c2cccc(NS(=O)(=O)c3ccc(Cl)cc3)c2O[C@@H]1CN(C)C(=O)Nc1ccc(C(F)(F)F)cc1 | Yes

Alright, here's another compound for you.
Per the records of this test, what outcome belongs to C[C@H]1CN([C@@H](C)CO)C(=O)c2cccc(NS(=O)(=O)c3ccc(Cl)cc3)c2O[C@H]1CN(C)C(=O)Nc1ccc(C(F)(F)F)cc1 ?
Yes

###

- Tested on: HSkMC (human skeletal muscle cells)
- measurement.description: cytotoxicity call (relative viability < 0.9)
- experimental.conditions: 10 µM
Out of some 39,000 compounds screened, about 1,500 (3.8%) were called active. This excerpt belongs to a sample that is enriched for actives.
Hello, when you answer, please use one of the following outcomes: TRUE (active), FALSE (inactive)

// below: answered compounds
C[C@@H]1CCCCO[C@H](CN(C)Cc2ccc(C(F)(F)F)cc2)[C@@H](C)CN([C@H](C)CO)C(=O)c2cc(NC(=O)Nc3ccccc3)ccc2O1 | FALSE
C[C@@H]1CN([C@H](C)CO)C(=O)c2cc(NC(=O)Nc3ccccc3)ccc2O[C@@H](C)CCCCO[C@@H]1CN(C)Cc1ccc(C(F)(F)F)cc1 | FALSE
C[C@@H]1CCCCO[C@@H](CN(C)Cc2ccc(C(F)(F)F)cc2)[C@H](C)CN([C@H](C)CO)C(=O)c2cc(NC(=O)Nc3ccccc3)ccc2O1 | TRUE
C[C@@H]1CCCCO[C@@H](CN(C)Cc2ccc(C(F)(F)F)cc2)[C@@H](C)CN([C@H](C)CO)C(=O)c2cc(NC(=O)Nc3ccccc3)ccc2O1 | FALSE
Cc1ccc(S(=O)(=O)N(C)C[C@@H]2Oc3ccc(NS(=O)(=O)c4c(C)noc4C)cc3CC(=O)N([C@H](C)CO)C[C@H]2C)cc1 | FALSE

Which outcome did this test record for the compound C[C@@H]1CN([C@@H](C)CO)C(=O)c2cc(NC(=O)Nc3ccccc3)ccc2O[C@@H](C)CCCCO[C@@H]1CN(C)Cc1ccc(C(F)(F)F)cc1 ?
FALSE
